system: P388 leukemia ip, CD2F1 mice, survival T/C; assay: NCI In Vivo Anticancer Drug Screen. Data for tumor model P388 Leukemia (intraperitoneal) in CD2F1 (CDF1) mice; details: endpoint: median survival time; dose: 50.0 mg/kg/injection; schedule: Q01DX009 (ip); vehicle: saline with Tween-80; higher = longer survival
Inconclusive results and toxic doses are left out.
T/C: recorded values

{"COMPOUND": "Cn1c(N)c(C(=O)C(F)(F)F)c(=O)n(C)c1=O", "MEASURED_VALUE": "99 % of control"}
{"COMPOUND": "CCOC(=O)c1cccc(C(=O)OCC)c1", "MEASURED_VALUE": "99 % of control"}
{"COMPOUND": "C=CC(C)(C)C12CC3C(=O)N/C(=C\\c4cnc[nH]4)C(=O)N3C1Nc1ccccc12 (centres undefined)", "MEASURED_VALUE": "100 % of control"}

# context switch: different compound, same T/C
Briefly, T/C measured for CC1(C)CC(C)(C)C2(OC3=C([Se]2)C(C)(C)CC(C)(C)C3=O)C(=O)C1=O (centres undefined) : 100 % of control

* * *

Attribute: T/C
tested on: P388 leukemia ip, CD2F1 mice, survival T/C; experiment: NCI In Vivo Anticancer Drug Screen. Data for tumor model P388 Leukemia (intraperitoneal) in CD2F1 (CDF1) mice; details: endpoint: median survival time; dose: 200.0 mg/kg/injection; schedule: Q01DX009 (ip); vehicle: saline; higher = longer survival
Toxic doses and inconclusive results are not listed.

Examples with their reported T/C follow.
{"COMPOUND": "CC(Br)C(=O)Nc1ncc([N+](=O)[O-])s1 (configuration not stated)", "T/C": "100 % of control"}
{"COMPOUND": "N#Cc1c(NC(=O)CCC(=O)O)ccc2ccccc12", "T/C": "114 % of control"}
{"COMPOUND": "C[CH](C)[Ge]([CH3])([CH](C)C)[CH](C)C", "T/C": "110 % of control"}

Notebook: CC1=NN(c2ccccc2)C(=O)C1N=Nc1ccccc1S(=O)(=O)O (configuration not stated) , T/C read as 111 % of control

// CC(C)(C)c1ccc2c(O)c(C(C)(C)C)cc(-c3ccccc3)c2c1 : T/C value = 106 % of control

Documented T/C of CN(C)C1=NN(Cc2ccccc2)C(=O)C1 : 96 % of control

Reported T/C of O=c1c2cc(OCO)ccc2[nH]c2cc3c(=O)c4cc(OCO)ccc4[nH]c3cc12 : 93 % of control

* * *

test system: P388 leukemia ip, CD2F1 mice, survival T/C; experiment: NCI In Vivo Anticancer Drug Screen. Data for tumor model P388 Leukemia (intraperitoneal) in CD2F1 (CDF1) mice; details: endpoint: median survival time; dose: 100.0 mg/kg/injection; schedule: Q01DX001 (ip); vehicle: saline; higher = longer survival
Toxic doses and inconclusive results are not listed.
Listed next: entries and their corresponding T/C.

{"MOLECULE": "COc1ccc2c(c1)N(S(=O)(=O)c1ccc(C)cc1)CC1=C2CCP1(C)=O (stereo not drawn)", "T/C": "111 % of control"}
{"MOLECULE": "CC1NC(C)N2C(C)N12 (stereo not drawn)", "T/C": "104 % of control"}
{"MOLECULE": "CCCC(=O)N(CCC(N)=O)c1ncc([N+](=O)[O-])s1", "T/C": "100 % of control"}
{"MOLECULE": "O=S(=O)(C#Cc1ccccc1)C(F)(F)C(F)(F)C(F)(F)C(F)(F)F", "T/C": "116 % of control"}
{"MOLECULE": "COc1ccc(S(=O)(=O)c2cnc(N/N=C/c3ccc([N+](=O)[O-])o3)nc2N)cc1", "T/C": "93 % of control"}

# molecule CC(=O)NCC(C)C ; its T/C = 100 % of control

Reported T/C for COc1c2occc2c(CSC(=N)N)c2ccc(=O)oc12 was 100 % of control

Given item CCC1OC(=O)C1[Si](C)(C)C (stereo not drawn) , the value recorded as its T/C is 99 % of control

* * *

system: P388 leukemia ip, CD2F1 mice, survival T/C; assay: NCI In Vivo Anticancer Drug Screen. Data for tumor model P388 Leukemia (intraperitoneal) in CD2F1 (CDF1) mice; details: endpoint: median survival time; dose: 120.0 mg/kg/injection; schedule: Q01DX005 (ip); vehicle: saline with Tween-80; higher = longer survival
Inconclusive results and toxic doses are left out.
# T/C per entry

Some solved cases for reference:
{"COMPOUND": "Cc1ccc2c(c1)C1(SC(C)C(=O)N1c1ccc(Br)cc1)C(=O)N2 (stereo unspecified)", "T/C": "96 % of control"}
{"COMPOUND": "CCOC(=O)c1csc(Br)n1", "T/C": "100 % of control"}

For CCCCc1c(O)c2c(=O)n(C)c(=O)n3c4ccccc4n(c1=O)c23 on P388 leukemia ip, CD2F1 mice, survival T/C, measured T/C was 89 % of control

Here O=C1CSC(c2ccc(F)cc2)N1c1nncs1 (stereo unspecified) was tested on P388 leukemia ip, CD2F1 mice, survival T/C, and its T/C came to 97 % of control

Case CCOC(=O)C(CO)NC(=O)c1cnc2ccccc2c1 (stereo unspecified) , P388 leukemia ip, CD2F1 mice, survival T/C, T/C recorded as 97 % of control

Assay P388 leukemia ip, CD2F1 mice, survival T/C, sample COC(=O)/C=c1/s/c(=C\C(C)=N)[nH]c1=O , T/C read: 89 % of control

The compound CCn1c(=O)cc2n(C)c3ccccc3n2c1=O , when measured on P388 leukemia ip, CD2F1 mice, survival T/C, yielded T/C of 94 % of control

* * *

system: P388 leukemia ip, CD2F1 mice, survival T/C; assay: NCI In Vivo Anticancer Drug Screen. Data for tumor model P388 Leukemia (intraperitoneal) in CD2F1 (CDF1) mice; conditions: endpoint: median survival time; dose: 400.0 mg/kg/injection; schedule: Q01DX009 (ip); vehicle: saline with Tween-80; higher = longer survival
Inconclusive results and toxic doses are left out.
MEASURED_ATTRIBUTE: T/C

{"COMPOUND": "COC(=O)/C=C(\\C)Oc1cc(Cl)c(Cl)cc1Cl", "MEASURED_VALUE": "87 % of control"}

The compound identified as COc1ccc(N=C/C=C/c2ccccc2)cc1 registered its T/C at 118 % of control

// recorded T/C for O=S(=O)(O)C(Nc1ccccc1)c1ccccc1 (centres undefined) : 104 % of control

Quick note, T/C for COc1ccc([N+](=O)[O-])cc1Br landed at 100 % of control

* * *

Consider the following compounds and their measured T/C readings.
tested on: P388 leukemia ip, CD2F1 mice, survival T/C; assay: NCI In Vivo Anticancer Drug Screen. Data for tumor model P388 Leukemia (intraperitoneal) in CD2F1 (CDF1) mice; conditions: endpoint: median survival time; dose: 240.0 mg/kg/injection; schedule: Q01DX005 (ip); vehicle: saline; higher = longer survival
Inconclusive results and toxic doses are left out.

Would you please look over these solved cases?
{"COMPOUND": "CC(C)=NNC1=NC(C)(C)P(=O)(NCC(=O)O)S1 (configuration not stated)", "T/C": "100 % of control"}
{"COMPOUND": "c1ccc(-n2cncn2)cc1", "T/C": "101 % of control"}
{"COMPOUND": "COC(=O)C1(C(=O)OC)ON1C(C)C (configuration not stated)", "T/C": "116 % of control"}
{"COMPOUND": "C1Cc2[nH]nc(-c3n[nH]c4c3CCC4)c2C1", "T/C": "97 % of control"}
{"COMPOUND": "[N-]=[N+]=NCC1OC(n2cnc3c(N)ncnc32)CC1O (configuration not stated)", "T/C": "104 % of control"}

Lab note: C=CC(/C=C\c1ccc(OC2OC(CO)C(O)C(O)C2O)cc1)c1ccc(OC2OC(CO)C(O)C(O)C2O)cc1 (configuration not stated) gave T/C of 92 % of control

response.value for CCc1cc(-c2cc(CC)on2)no1 (field: T/C) = 91 % of control

Measured T/C of C[Si](C)(C)CNC(=O)OCc1ccccc1 : 95 % of control

T/C reported for this compound COC1OC(CO)C(O)C2OCCOCCOC3C(OC)OC(CO)C(O)C3OCCOCCOC12 (configuration not stated) : 97 % of control

T/C recorded for this compound, CCS(=O)O , is 112 % of control

Lab note: measured T/C of NC1=N[C@H]2CS[C@@H](CCCCC(=O)ON3C(=O)CCC3=O)[C@H]2N1 was 98 % of control

Item: c1ncc2n[pH]nc2n1 (configuration not stated) | T/C: 96 % of control

* * *

test system: P388 leukemia ip, CD2F1 mice, survival T/C; experiment: NCI In Vivo Anticancer Drug Screen. Data for tumor model P388 Leukemia (intraperitoneal) in CD2F1 (CDF1) mice; settings: endpoint: median survival time; dose: 200.0 mg/kg/injection; schedule: Q04DX003 (ip); vehicle: saline; higher = longer survival
Toxic doses and inconclusive results are not listed.
Entries and their measured T/C follow.

Param item: COc1ccc(/C=N/NC(=O)/C(C#N)=C/c2ccc(OC)cc2)cc1 ; param system: P388 leukemia ip, CD2F1 mice, survival T/C; output T/C: 105 % of control

// assay P388 leukemia ip, CD2F1 mice, survival T/C, entry COC(=O)N/N=C\c1ccc(O)c(OC)c1 , T/C value = 97 % of control

The reported P388 leukemia ip, CD2F1 mice, survival T/C T/C of CC(C)OC(=O)C1(N)CCCC1 is 104 % of control
